- measurement.description: Tmax in CD1 mouse at 5 mg/kg, po by LC-MS/MS analysis
- Assay type: ADME, organism-based
- measurement.setup: in vivo
readout.name: Tmax (h)
Numbers only; they are read as h.

Prompt: State the recorded Tmax for this entry: COC(=O)N[C@H](C(=O)N1[C@H](c2ncc(-c3ccc4c(c3)-c3ccc(-c5cnc([C@@H]6C[C@@H]7CCC[C@@H]7N6C(=O)[C@@H](NC(=O)OC)[C@@H](C)OC)[nH]5)cc3-4)[nH]2)C[C@@H]2CCC[C@@H]21)[C@@H](C)OC
Response: 2

* * *

- measurement.description: Half life in Beagle dog at 1 mg/kg, iv by LC-MS/MS analysis
- Type: ADME, organism-based, Canis lupus familiaris
- measurement.setup: in vivo
readout.name: half-life (h)
Numbers only; they are read as h.

Prompt: State the recorded half-life for this entry: COC(=O)N[C@H](C(=O)N1[C@H](c2ncc(-c3ccc4c(c3)-c3ccc(-c5cnc([C@@H]6C[C@@H]7CCC[C@@H]7N6C(=O)[C@@H](NC(=O)OC)[C@@H](C)OC)[nH]5)cc3-4)[nH]2)C[C@@H]2CCC[C@@H]21)[C@@H](C)OC
Response: 5.2

Numbers sourced from ChEMBL document CHEMBL4354870.
